- Test system: Hepatitis B virus
- METHOD_SUMMARY: Antiviral activity against HBV infected in human HepG2.2.15 cells assessed as inhibition of DNA replication
- Format: functional, organism-based
- MEASUREMENT_CONTEXT: HepG2 2.2.15
READOUT_LABEL: IC50 (µM)
Numbers only, in µM.

Known IC50 results, listed for orientation:
C=C1CC[C@@H]2[C@](C)(COC(=O)c3cccs3)[C@H](O)CC[C@@]2(C)[C@@H]1C/C=C1\C=COC1=O ... 23.5
C=C1CC[C@@H]2[C@](C)(COC(=O)c3ccccc3C(=O)O)[C@H](OC(=O)c3ccccc3C(=O)O)CC[C@@]2(C)[C@@H]1/C=C/C1=CCOC1=O ... 104
C=C1CC[C@@H]2[C@](C)(CO)[C@H](OC(=O)CCCC)CC[C@@]2(C)[C@@H]1C/C=C1\C=COC1=O ... 69.8
C=C1CC[C@H]2[C@@](C)(CCC(=O)[C@@]2(C)C=O)[C@@H]1C/C=C1\C=COC1=O ... 169
C=C1CC[C@@H]2[C@](C)(COC(=O)/C=C/c3cccc(Cl)c3)[C@H](O)CC[C@@]2(C)[C@@H]1/C=C/C1=CCOC1=O ... 136
C=C1CC[C@@H]2[C@](C)(CO)[C@H](O)CC[C@@]2(C)[C@@H]1C/C=C1/C(=O)OC[C@H]1O [ANDROGRAPHOLIDE] ... 54.1
C=C1CC[C@@H]2[C@](C)(COC(C)=O)[C@H](OC(C)=O)CC[C@@]2(C)[C@@H]1/C=C/C1=CCOC1=O ... 455
C=C1CC[C@@H]2[C@](C)(COC(=O)c3ccco3)[C@H](O)CC[C@@]2(C)[C@@H]1/C=C/C1=CCOC1=O ... 9.3
C=C1CC[C@@H]2[C@](C)(COC(=O)/C=C/c3cc(OC)c(OC)c(OC)c3)[C@H](O)CC[C@@]2(C)[C@@H]1C/C=C1\C=COC1=O ... 22.3
C=C1CC[C@@H]2[C@](C)(COC(=O)c3cc(=O)c4ccccc4o3)[C@H](O)CC[C@@]2(C)[C@@H]1/C=C/C1=CCOC1=O ... 36.6

Report IC50 for each item below.
1. C=C1CC[C@@H]2[C@](C)(CO)[C@H](OC(=O)c3cccs3)CC[C@@]2(C)[C@@H]1C/C=C1\C=COC1=O
2. C=C1CC[C@@H]2[C@](C)(COC(=O)c3cccnc3)[C@H](O)CC[C@@]2(C)[C@@H]1/C=C/C1=CCOC1=O
3. C=C1CC[C@@H]2[C@](C)(CO)[C@H](O)CC[C@@]2(C)[C@@H]1/C=C/C1=CC(CO)(CO)OC1=O

1: 8.1; 2: 22.1; 3: 154

###

- METHOD_SUMMARY: Selectivity index, ratio of CC50 for human HepG2.2.15 cells to IC50 for HBV infected in human HepG2.2.15 cells assessed as inhibition of DNA replication
- Assay type: functional
Please respond with reported Ratio CC50/IC50 for every item in the list.
Give bare numbers.

Worked cases, Ratio CC50/IC50 given:
C=C1CC[C@H]2[C@@](C)(CCC(=O)[C@@]2(C)C=O)[C@@H]1C/C=C1\C=COC1=O ... 5.7
C=C1CC[C@@H]2[C@](C)(CO)[C@H](OC(=O)/C=C/c3cc(OC)c(OC)c(OC)c3)CC[C@@]2(C)[C@@H]1C/C=C1\C=COC1=O ... 3
C=C1CC[C@@H]2[C@](C)(COC(=O)c3cccs3)[C@H](O)CC[C@@]2(C)[C@@H]1/C=C/C1=CCOC1=O ... 25.2
C=C1CC[C@H]2[C@@](C)(CCC(=O)[C@@]2(C)C=O)[C@@H]1C/C=C1/C(=O)OC[C@H]1O ... 3
C=C1CC[C@@H]2[C@](C)(CO)[C@H](O)CC[C@@]2(C)[C@@H]1C/C=C1/C(=O)OC[C@H]1O [ANDROGRAPHOLIDE] ... 3.7

Alright, here's another compound for you.
For the compound "C=C1CC[C@@H]2[C@](C)(CO)[C@H](OC(=O)c3ccccc3)CC[C@@]2(C)[C@@H]1C/C=C1\C=COC1=O" , what Ratio CC50/IC50 is on record?
4.8
